# System: Huh-7.5 HCV J6/JFH-1 infection, RT-qPCR viral RNA, 48 h
# Method description: HCV infectivity inhibition in Huh-7.5 cells, late-stage follow-up, counter-screen for HCV core dimerization inhibitor project, cell-based, RT-qPCR viral RNA, J6/JFH-1, powder samples (AID 651575)
pIC50: −log10 of the molar value.
Classify as follows. Reported pIC50 greater than or equal to 7: criterion met. Reported pIC50 below: criterion not met.

- Compound: "Cc1ccc(Cc2c(C)nc3nc(SCC(=O)NCCN4CCCCCC4)nn3c2C)cc1"
  Category: "criterion not met"
- Compound: "Cc1ccc(Cc2c(C)nc3nc(SCC(=O)NCCN4CCNCC4)nn3c2C)cc1"
  Category: "criterion met"
- Compound: "Cc1ccc(Cc2c(C)nc3nc(SCC(=O)NCCN4CCCN(S(=O)(=O)c5ccccc5)CC4)nn3c2C)cc1"
  Category: "criterion not met"
- Compound: "Cc1ccc(Cc2c(C)nc3nc(SCC(=O)NCCN4CCN(Cc5ccc(F)cc5)CC4)nn3c2C)cc1"
  Category: "criterion met"
- Compound: "Cc1ccc(Cc2c(C)nc3nc(SCC(=O)NCCN4CCCN(S(=O)(=O)c5ccc(C)cc5)CC4)nn3c2C)cc1"
  Category: "criterion met"
- Compound: "Cc1ccc(Cc2c(C)nc3nc(SCC(=O)NCCN4CCOCC4)nn3c2C)cc1"
  Category: "criterion not met"
- Compound: "Cc1ccc(Cc2c(CCc3ccccc3)nc3nc(SC(Cc4ccccc4)C(=O)NCCN4CCOCC4)nn3c2C)cc1 (centres undefined)"
  Category: "criterion not met"
- Compound: "Cc1ccc(Cc2c(C)nc3nc(SCC(=O)NCCN4CCN(CCc5ccccc5)CC4)nn3c2C)cc1"
  Category: "criterion not met"
- Compound: "Cc1ccc(Cc2c(C)nc3nc(SCC(=O)NCCN4CCCN(S(C)(=O)=O)CC4)nn3c2C)cc1"
  Category: "criterion not met"

Values compiled from PubChem BioAssay AID651575.
